I'd be grateful if you could share measured half-life for these entries.
procedure_summary: In vitro murine plasma hydrolysis of prodrugs
Format: in vitro ADME
condition_info: mouse, initial drug concentration 50 mcg/ml, read-out: t1/2 of hydrolysis in murine plasma
Where a name gives a salt, the structure may show the parent alone.
Only the number, expressed in min, is required.

Problem: Bench note: what half-life did CC[C@@]1(OP(=O)(O)O)C(=O)OCc2c1cc1n(c2=O)Cc2cc3ccccc3nc2-1 [Formula 15, Camptothecin-20-phosphate sodium salt] show?
Result: 27

Problem: Would you mind doing CC[C@@]1(OC(=O)CCC(=O)O)C(=O)OCc2c1cc1n(c2=O)Cc2cc3ccccc3nc2-1 [Formula 14, sodium salt] as well?
Result: 40

Problem: Would you mind doing CC[C@@]1(OC(=O)CN)C(=O)OCc2c1cc1n(c2=O)Cc2cc3ccccc3nc2-1 [Formula 7, Camptothecin-20-O-glycinate.HCl] as well?
Result: 36

Problem: Would you mind doing CC[C@@]1(OC(=O)C(N)CCCCCN)C(=O)OCc2c1cc1n(c2=O)Cc2cc3ccccc3nc2-1 (stereo partly shown) as well?
Result: 48
